The reported measurements were obtained from patent US8048862B2.

Property: EC50; scope: individual molecules
System: hepatitis C replicon
Experiment: hepatitis C replicon EC50
Assay type: cell-based
Conditions: Hepatitis C virus; Table 3; hepatitis C replicon; read-out: EC50

molecule	tgt	EC50
Cc1ccc2nc(O[C@@H]3C[C@H]4C(=O)N[C@]5(C(=O)NS(=O)(=O)C6(C)CC6)C[C@H]5/C=C\CCCCC[C@H](NC(=O)OC(C)(C)C)C(=O)N4C3)sc2c1 [Compound 1014]	hepatitis C replicon	< 10 nM
Cc1ccccc1N[C@H]1CCCCC/C=C\[C@@H]2C[C@@]2(C(=O)NS(=O)(=O)C2(C)CC2)NC(=O)[C@@H]2C[C@@H](OC(=O)N3Cc4cccc(F)c4C3)CN2C1=O [Compound 1114]	hepatitis C replicon	10 to 100 nM
CC(C)(C)OC(=O)N[C@H]1CCCCC/C=C\[C@@H]2C[C@@]2(C(=O)NS(=O)(=O)C2(C)CC2)NC(=O)[C@@H]2C[C@@H](Oc3nc4cc(Cl)ccc4o3)CN2C1=O [Compound 1046]	hepatitis C replicon	> 100 nM
CC1(S(=O)(=O)NC(=O)[C@@]23C[C@H]2/C=C\CCCCC[C@H](Nc2cccc(C(F)(F)F)c2)C(=O)N2C[C@H](OC(=O)N4Cc5cccc(F)c5C4)C[C@H]2C(=O)N3)CC1 [Compound 1116]	hepatitis C replicon	< 10 nM
CC(C)(C)OC(=O)N[C@H]1CCCCC/C=C\[C@@H]2C[C@@]2(C(=O)NS(=O)(=O)C2(C)CC2)NC(=O)[C@@H]2C[C@@H](Oc3nc4ccccc4o3)CN2C1=O [Compound 1028]	hepatitis C replicon	10 to 100 nM
CC1(S(=O)(=O)NC(=O)[C@@]23C[C@H]2/C=C\CCCCC[C@H](Nc2ccc(F)cc2)C(=O)N2C[C@H](OC(=O)N4Cc5cccc(F)c5C4)C[C@H]2C(=O)N3)CC1 [Compound 1111]	hepatitis C replicon	10 to 100 nM
CC(C)(C)OC(=O)N[C@H]1CCCCC/C=C\[C@@H]2C[C@@]2(C(=O)NCCC(=O)NCc2ccccc2)NC(=O)[C@@H]2C[C@@H](O)CN2C1=O [Compound 1058]	hepatitis C replicon	> 100 nM
CC(C)(C)OC(=O)N[C@H]1CCCCC/C=C\[C@@H]2C[C@@]2(C(=O)NS(=O)(=O)c2ccccc2OCC(N)=O)NC(=O)[C@@H]2C[C@@H](O)CN2C1=O [Compound 1093]	hepatitis C replicon	> 100 nM
CC(C)n1c(O[C@@H]2C[C@H]3C(=O)N[C@]4(C(=O)NS(=O)(=O)N(C)C)C[C@H]4/C=C\CCCCC[C@H](NC(=O)OC(C)(C)C)C(=O)N3C2)nc2ccc(F)cc21 [Compound 1136]	hepatitis C replicon	< 10 nM
CC(C)n1c(O[C@@H]2C[C@H]3C(=O)N[C@]4(C(=O)NS(=O)(=O)C5(C)CC5)C[C@H]4/C=C\CCCCC[C@H](NC(=O)OC(C)(C)C)C(=O)N3C2)nc2ccccc21 [Compound 1077]	hepatitis C replicon	< 10 nM
